Entries annotated with measured AC35
# Tested on: HepG2 viability, CellTiter-Glo ATP luminescence, 72 h
# assay_protocol: viability loss in human hepatoma cells – cell-based, CellTiter-Glo luminescence, cherry-pick, set 2, cytotoxicity control, dose response (AID 743395)

- molecule: "COc1ccc2c(c1)sc(N)[n+]2Cc1cc(C)cc2cccnc12"
  AC35: "12.4 µM"
- molecule: "COc1cc(C(=O)Nc2ccc3c(c2)ncn3C)cc(OC)c1OC"
  AC35: "14.5 µM"

Please give the measured AC35 for this molecule: `CC(C)CC#Cc1ccc([C@@H]2[C@@H](CO)N3CCCCN(C(=O)NC4CCCC4)C[C@H]23)cc1` 9.9 µM

Look up AC35: `Nc1c(C(=O)c2ccco2)oc2ccccc12` 15.8 µM

Any idea what its AC35 is? The molecule is `CCCCNC(=O)C(=O)Nc1ccc2c(c1)N(S(=O)(=O)c1cccs1)CCC2` 12.7 µM

Entry under review: `C/C(=N\NC(=O)c1cc(-c2cccs2)nc2ccccc12)c1ccccn1` . Reported AC35? 1.63 µM

Given the entry `O=c1ccc2[n+]([O-])c3ccc(O)cc3oc-2c1` , report its measured AC35. 13.2 µM

Entry under review: `COc1cc(C#Cc2ccc3cc(CCCO)oc(=O)c3c2)cc(OC)c1` . Reported AC35? 6.25 µM

Would you mind telling me what AC35 value was observed for CN(CC1CCCO1)S(=O)(=O)c1ccc(C(=O)Nc2nnc(-c3ccccc3)o2)cc1 (centres undefined) ? 9.86 µM

Fill in the blank: the reported AC35 of `CN1C(=CC=C2C=C(I)C(=O)C(I)=C2)C(C)(C)c2ccccc21` is ____. 3.56 µM

I'd like to know its AC35. The molecule in question is `CN(C)CCNC(=O)c1ccc(Cl)c2cc3ccccc3nc12` 2.59 µM

* * *

# System: HepG2 viability, CellTiter-Glo ATP luminescence, 72 h
# assay_protocol: viability loss in human hepatoma cells – cell-based, CellTiter-Glo luminescence, cherry-pick, set 2, cytotoxicity control, dose response (AID 743395)
Each entry below carries its reported AC35.

Worked examples, 5 compounds total:
- compound: "C#Cc1cc(N2CCN(C(=O)c3ccoc3)CC2)n2nc(-c3cccc(Cl)c3)cc2n1"
  test_readout: "AC35"
  recorded_measurement: "7.94 µM"
- compound: "O=C(N/N=C/c1cccs1)c1cc(C2CC2)nc2ccccc12"
  test_readout: "AC35"
  recorded_measurement: "21.1 µM"
- compound: "CN(C)CCn1c2ccccc2c2nc3ccc([N+](=O)[O-])cc3cc21"
  test_readout: "AC35"
  recorded_measurement: "20.8 µM"
- compound: "COc1ccc(OC)c(-c2cnc(OC(C)(C)C)nc2OC(C)(C)C)c1"
  test_readout: "AC35"
  recorded_measurement: "19.3 µM"
- compound: "C/C(=N\\NC(=O)c1c(Cl)c(C)nn1C)c1ccc(NC(=O)C2CCC2)cc1"
  test_readout: "AC35"
  recorded_measurement: "4.43 µM"

What value of AC35 has been recorded for this entry: `O=C1C=CC(O)(c2cc(=O)c3c(O)cc(O)cc3o2)C=C1` 8.15 µM

* * *

# AC35 annotations
# Test system: HepG2 viability, CellTiter-Glo ATP luminescence, 72 h
# assay_protocol: viability loss in human hepatoma cells – cell-based, CellTiter-Glo luminescence, cherry-pick, set 2, cytotoxicity control, dose response (AID 743395)

- compound: "CCc1ccc(OCCNc2cc(N3CCNC(C)C3)ccc2[N+](=O)[O-])cc1 (configuration not stated)"
  experimental_system: "HepG2 viability, CellTiter-Glo ATP luminescence, 72 h"
  recorded_measurement: "9.58 µM"
- compound: "CN(C)CCCNc1c2ccccc2nc2ccccc12"
  experimental_system: "HepG2 viability, CellTiter-Glo ATP luminescence, 72 h"
  recorded_measurement: "0.794 µM"
- compound: "Cc1ccc(-c2ccc3c(c2)O[C@H](CN(C)Cc2ccccn2)[C@@H](C)CN([C@@H](C)CO)S3(=O)=O)cc1"
  experimental_system: "HepG2 viability, CellTiter-Glo ATP luminescence, 72 h"
  recorded_measurement: "16.8 µM"
- compound: "C[C@H]1CN([C@@H](C)CO)S(=O)(=O)c2ccc(C#CC3CCCCC3)cc2O[C@H]1CN(C)Cc1cccnc1"
  experimental_system: "HepG2 viability, CellTiter-Glo ATP luminescence, 72 h"
  recorded_measurement: "22.2 µM"
- compound: "CCN(CC)CCC(=O)Nc1cccc2c1C(=O)c1ccccc1C2=O"
  experimental_system: "HepG2 viability, CellTiter-Glo ATP luminescence, 72 h"
  recorded_measurement: "6.39 µM"

Would you mind telling me what AC35 value was observed for `C[C@H]1CN([C@@H](C)CO)S(=O)(=O)c2ccc(-c3ccc(C#N)cc3)cc2O[C@@H]1CN(C)Cc1ccccn1` ? 5.26 µM

Tell me the measured AC35 of `COc1cc(/C=C2/SC(=Nc3ccc(O)cc3)NC2=O)cc(OC)c1O` , please. 14.7 µM

Give its AC35 value. Item: `O=C1NC(=O)C(=Cc2c(Cl)cccc2Cl)C(=O)N1` 22.2 µM

* * *

We begin with a simple list: items and their reported AC35.
# System: HepG2 viability, CellTiter-Glo ATP luminescence, 72 h
# assay_protocol: viability loss in human hepatoma cells – cell-based, CellTiter-Glo luminescence, cherry-pick, set 2, cytotoxicity control, dose response (AID 743395)

# count of solved cases: 2
- test_smiles: "OC[C@@H]1CN(Cc2ccc(-c3ccccc3)cc2)C[C@H](n2cnc3c(NC4CC4)ncnc32)O1"
  AC35: "19.3 µM"
- test_smiles: "N#Cc1ccc(-c2cccs2)nc1SCc1cccnc1"
  AC35: "0.671 µM"

Which measured AC35 belongs to `COc1ccccc1C(=O)NC(=S)/C=C1/N(C)c2ccccc2C1(C)C` , tested on HepG2 viability, CellTiter-Glo ATP luminescence, 72 h? 16 µM

Write down the reported AC35 of `Oc1ccc(/C=N/Nc2nc(-c3ccccc3F)nc3ccccc23)c(O)c1` , test system: HepG2 viability, CellTiter-Glo ATP luminescence, 72 h. 15.6 µM
